pIC50 values, listed per item
tested target: BRD4 bromo domain 1 [BRD4(1)] (Homo sapiens, UniProt O60885)
Construct: N-terminally His6-tagged BRD4(1) (amino acids 67-152)
assay overview: BRD4(1)/acetylated peptide H4 binding assay (TR-FRET)
condition set: inhibition of interaction between BRD4(1) and acetylated histone H4 peptide
Experimental: To assess the BRD4(1) binding strength of the substances described in this application, the ability thereof to inhibit the interaction between BRD4(1) and acetylated histone H4 in a dose-dependent manner was quantified. […] In the assay, typically 11 different concentrations of each substance (0.1 nM, 0.33 nM, 1.1 nM, 3.8 nM, 13 nM, 44 nM, 0.15 μM, 0.51 μM, 1.7 μM, 5.9 μM and 20 μM) were analysed as duplicates on the same microtitre plate. […]
pIC50: −log10 of the molar value.

molecule	pIC50
CC[C@@H]1C(=O)N(C)c2cnc(Nc3ncc(C(=O)NCC(F)(F)F)cc3OC)cc2N1C1CCCC1 [Example 7]	6.56
CC[C@@H]1C(=O)N(C)c2cnc(Nc3ncc(C(=O)NC4CC4)cc3C)cc2N1C1CCCC1 [Example 13]	6.36
CC[C@@H]1C(=O)N(C)c2cnc(Nc3ncc(C(=O)NC4CCOCC4)cc3C)cc2N1C1CCCC1 [Example 17]	6.27
CC[C@@H]1C(=O)N(C)c2cnc(Nc3ncc(C(=O)NC4CCOCC4)cc3OC)cc2N1C1CCCC1 [Example 10]	6.42
COc1cc(C(=O)NC2CC2)cnc1Nc1cc2c(cn1)N(C)C(=O)[C@@H](C)N2C1CCCC1 [Example 2]	6.90
CC[C@@H]1C(=O)N(C)c2cnc(Nc3ncc(C(=O)NCCOC)cc3OC)cc2N1C1CCCC1 [Example 8]	6.48
CC[C@@H]1C(=O)N(C)c2cnc(Nc3ncc(C(=O)NCc4cccnc4)cc3OC)cc2N1C1CCCC1 [Example 12]	6.37
CCC1C(=O)N(C)c2cnc(Nc3ncc(C(=O)NC4CC4)cc3OC)cc2N1C1CCCC1 (centres unmarked) [Example 4]	6.35

---

The compounds listed here are annotated with their log10(IC50).
tested target: Plk-1 (Homo sapiens, UniProt P53350)
Construct: Recombinant fusion protein consisting of GST and Plk (kinase domain 33-345); MW 36 kDa; GST; made in house; host or cells: insect cells (Hi5)
Sequence (P53350 33-345): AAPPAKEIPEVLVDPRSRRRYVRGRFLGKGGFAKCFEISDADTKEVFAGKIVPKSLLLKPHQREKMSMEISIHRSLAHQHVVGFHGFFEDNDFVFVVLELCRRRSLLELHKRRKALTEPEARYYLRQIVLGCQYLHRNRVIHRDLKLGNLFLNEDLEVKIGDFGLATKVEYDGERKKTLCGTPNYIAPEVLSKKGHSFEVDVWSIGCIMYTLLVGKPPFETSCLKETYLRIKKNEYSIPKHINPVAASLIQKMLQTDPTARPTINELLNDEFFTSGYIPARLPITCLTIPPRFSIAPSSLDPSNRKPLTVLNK
assay overview: Plk-1 enzyme assay (indirect HTRF kinase assay)
Format: biochemical
condition set: 10 mM ATP (high ATP concentration); read-out: IC50 [Plk-1] (10 mM ATP)
measure: log10(IC50) (log10 of the value in nM)

compound	log10(IC50)
CC[C@@H]1C(=O)N(C)c2cnc(Nc3ncc(C(=O)NC(C)(C)CO)cc3OC)cc2N1C1CCCC1 [Example 11]	1.76
CC[C@@H]1C(=O)N(C)c2cnc(Nc3ncc(C(=O)NCc4cccnc4)cc3OC)cc2N1C1CCCC1 [Example 12]	1.36
CCc1cc(C(=O)NC2CC2)cnc1Nc1cc2c(cn1)N(C)C(=O)[C@@H](CC)N2C1CCCC1 [Example 3]	1.23
CC[C@@H]1C(=O)N(C)c2cnc(Nc3ncc(C(=O)NC4CCOCC4)cc3OC)cc2N1C1CCCC1 [Example 10]	1.49
COc1cc(C(=O)NC2CCN(C)CC2)cnc1Nc1cc2c(cn1)N(C)C(=O)C(C)N2C1CCCC1 (stereo not drawn) [Example 6]	1.28
CC[C@@H]1C(=O)N(C)c2cnc(Nc3ncc(C(=O)NC4CC4)cc3C)cc2N1C1CCCC1 [Example 13]	1.18
CCC1C(=O)N(C)c2cnc(Nc3ncc(C(=O)NC4CC4)cc3OC)cc2N1C1CCCC1 (stereo not drawn) [Example 4]	1.49
CC[C@@H]1C(=O)N(C)c2cnc(Nc3ncc(C(=O)NC4CCOCC4)cc3C)cc2N1C1CCCC1 [Example 17]	1.15
CC[C@@H]1C(=O)N(C)c2cnc(Nc3ncc(C(=O)N[C@@H]4CCCCNC4=O)cc3OC)cc2N1C1CCCC1 [Example 16]	1.34
CC[C@@H]1C(=O)N(C)c2cnc(Nc3ncc(C(=O)NC4CCN(C)CC4)cc3C)cc2N1C1CCCC1 [Example 18]	0.85
CC[C@@H]1C(=O)N(C)c2cnc(Nc3ncc(C(=O)NCC(F)(F)F)cc3OC)cc2N1C1CCCC1 [Example 7]	1.48
CC[C@@H]1C(=O)N(C)c2cnc(Nc3ncc(C(=O)NC4CCCCC4)cc3OC)cc2N1C1CCCC1 [Example 20]	1.54
CC[C@@H]1C(=O)N(C)c2cnc(Nc3ncc(C4=NC(C)(C)CO4)cc3OC)cc2N1C1CCCC1 [Example 19]	2.00
CC[C@@H]1C(=O)N(C)c2cnc(Nc3ncc(C(=O)NC4CCN(C)CC4)cc3OC)cc2N1C1CCCC1 [Example 14]	1.46
CCc1cc(C(=O)N[C@@H]2CCCCNC2=O)cnc1Nc1cc2c(cn1)N(C)C(=O)[C@@H](CC)N2C1CCCC1 [Example 9]	1.23
CC[C@@H]1C(=O)N(C)c2cnc(Nc3ncc(C(=O)NCCOC)cc3OC)cc2N1C1CCCC1 [Example 8]	1.34
CC[C@@H]1C(=O)N(C)c2cnc(Nc3ncc(C(=O)N[C@@H]4CCCCNC4=O)cc3C)cc2N1C1CCCC1 [Example 15]	1.34
CC[C@@H]1C(=O)N(C)c2cnc(Nc3ncc(C(=O)NC4CC4)cc3OC)cc2N1C1CCCC1 [Example 5]	1.32

Data origin: patent US20160272635A1
